Each recorded value in this set is attributed to ChEMBL document CHEMBL5291721.

assayed target: Equilibrative nucleoside transporter 1 (Homo sapiens, UniProt Q99808); also: assay procedure not described here
Sequence (Q99808 whole entry): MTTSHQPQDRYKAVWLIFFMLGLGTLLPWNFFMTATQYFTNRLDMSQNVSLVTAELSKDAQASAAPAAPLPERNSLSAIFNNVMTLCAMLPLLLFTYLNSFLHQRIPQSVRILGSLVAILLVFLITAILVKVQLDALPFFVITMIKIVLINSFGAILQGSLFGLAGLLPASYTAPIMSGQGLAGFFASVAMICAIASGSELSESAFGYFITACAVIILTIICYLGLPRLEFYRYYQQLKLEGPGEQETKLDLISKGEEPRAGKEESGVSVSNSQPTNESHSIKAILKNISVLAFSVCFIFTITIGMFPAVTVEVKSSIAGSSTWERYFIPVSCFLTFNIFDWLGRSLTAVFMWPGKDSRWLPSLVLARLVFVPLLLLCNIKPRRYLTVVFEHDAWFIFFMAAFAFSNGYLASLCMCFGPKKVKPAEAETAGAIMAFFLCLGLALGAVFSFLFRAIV
Exercise: for every item that follows, state its recorded AC50.

INSERT INTO measurements (compound, recorded_measurement) VALUES
  ('CN(C)CCCC1(c2ccc(F)cc2)OCc2cc(C#N)ccc21 (centres undefined)', '> 30 µM'),
  ('CN(C)CCc1c[nH]c2ccc(CS(=O)(=O)N3CCCC3)cc12', '> 30 µM'),
  ('N[C@@H](Cc1cc(I)c(Oc2cc(I)c(O)c(I)c2)c(I)c1)C(=O)O', '> 30 µM'),
  ('O=C(C[S+]([O-])Cc1ccco1)NC/C=C\COc1cc(CN2CCCCC2)ccn1 (centres undefined)', '> 10 µM'),
  ('CC(=O)[C@@]1(O)CC[C@H]2[C@@H]3C[C@H](C)C4=CC(=O)C=C[C@]4(C)[C@@]3(F)[C@@H](O)C[C@@]21C', '> 10 µM'),
  ('CN(C)CCN(Cc1ccccc1)c1ccccn1', '> 30 µM'),
  ('O=C(O)c1ccc2nc(-c3cc(Cl)cc(Cl)c3)oc2c1', '> 30 µM'),
  ('N=C(N)NC(=O)c1nc(Cl)c(N)nc1N [AMILORIDE]', '> 30 µM');

Now examine the next entry.
Qu. Can you share its AC50? I mean this compound: CCC1(c2ccccc2)C(=O)NCNC1=O
Ans. > 10 µM

###

Consider the following molecules; for each one, report its AC50.
assayed target: Vasopressin V2 receptor (Homo sapiens, UniProt P30518); also: assay procedure not described here
Sequence (P30518 whole entry): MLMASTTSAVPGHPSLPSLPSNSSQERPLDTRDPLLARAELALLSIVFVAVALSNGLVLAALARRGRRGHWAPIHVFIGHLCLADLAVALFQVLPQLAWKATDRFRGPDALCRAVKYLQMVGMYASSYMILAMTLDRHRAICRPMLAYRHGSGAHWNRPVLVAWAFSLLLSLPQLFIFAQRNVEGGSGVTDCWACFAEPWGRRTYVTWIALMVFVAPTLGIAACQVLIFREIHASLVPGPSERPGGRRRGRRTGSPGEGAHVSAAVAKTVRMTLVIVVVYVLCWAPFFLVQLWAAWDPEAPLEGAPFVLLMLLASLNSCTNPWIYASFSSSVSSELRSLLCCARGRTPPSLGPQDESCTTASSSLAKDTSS

Worked cases, AC50 given:
INSERT INTO results (molecule, assayed_target, assay_metric, recorded_measurement) VALUES
  ('O=C1CN=C(c2ccccc2Cl)c2cc([N+](=O)[O-])ccc2N1', 'Vasopressin V2 receptor (Homo sapiens, UniProt P30518)', 'AC50', '> 30 µM'),
  ('CCC1(CC)C(=O)NC(=O)N(C)C1=O', 'Vasopressin V2 receptor (Homo sapiens, UniProt P30518)', 'AC50', '> 10 µM');

Respectfully, I request AC50 for each entry included below.
1. Cc1cnc(Nc2ccc(OCCN3CCCC3)cc2)nc1Nc1cccc(S(=O)(=O)NC(C)(C)C)c1
2. CCC(=O)O[C@H](CC(=O)O)C[N+](C)(C)C [LEVOCARNITINE PROPIONATE]
3. CN(C)CCOC(c1ccc(Cl)cc1)c1ccccn1 (stereo not given)

Ans.
["> 30 µM", "> 30 µM", "> 30 µM"]

###

assayed target: 5-hydroxytryptamine receptor 1A (Homo sapiens); also: assay procedure not described here
Sequence (P08908 whole entry): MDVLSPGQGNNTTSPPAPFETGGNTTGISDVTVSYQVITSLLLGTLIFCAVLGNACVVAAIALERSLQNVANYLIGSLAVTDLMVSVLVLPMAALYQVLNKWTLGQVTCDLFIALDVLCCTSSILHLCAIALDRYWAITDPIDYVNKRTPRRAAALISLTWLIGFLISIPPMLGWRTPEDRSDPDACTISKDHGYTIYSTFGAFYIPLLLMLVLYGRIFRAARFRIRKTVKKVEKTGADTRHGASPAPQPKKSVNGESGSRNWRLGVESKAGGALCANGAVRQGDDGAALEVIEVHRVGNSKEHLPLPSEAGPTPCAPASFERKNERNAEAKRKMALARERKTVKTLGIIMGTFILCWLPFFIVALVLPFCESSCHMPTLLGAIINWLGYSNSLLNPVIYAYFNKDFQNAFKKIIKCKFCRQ
assay metric: AC50

Parameter requested: AC50. Apply to each item below.
1. COC(=O)N[C@H](C(=O)N1CC2(CC2)C[C@H]1c1ncc(-c2ccc3c(c2)C(F)(F)c2cc(-c4ccc5nc([C@@H]6[C@H]7CC[C@H](C7)N6C(=O)[C@@H](NC(=O)OC)C(C)C)[nH]c5c4)ccc2-3)[nH]1)C(C)C
2. Cc1c(C)c2c(c(C)c1O)CCC(C)(COc1ccc(CC3SC(=O)NC3=O)cc1)O2 (stereo not given) [TROGLITAZONE]
3. C#C[C@]1(OC(C)=O)CC[C@H]2[C@@H]3CCC4=CC(=O)CC[C@@H]4[C@H]3CC[C@@]21C [NORETHINDRONE ACETATE]
4. CC1=C(/C=C/C(C)=C/C=C/C(C)=C\C(=O)O)C(C)(C)CCC1 [ISOTRETINOIN]
5. NC(=O)C1(N2CCCCC2)CCN(CCCN2c3ccccc3CCc3ccccc32)CC1 [CARPIPRAMINE]
6. Cc1ccc(O)c([C@H](CCN(C(C)C)C(C)C)c2ccccc2)c1 [TOLTERODINE]

Ans.
1. > 30 µM
2. 25.7 µM
3. > 30 µM
4. > 30 µM
5. 2.83 µM
6. > 30 µM

Give AC50 for all compounds that follow.
1. CC(C)Nc1cccnc1N1CCN(C(=O)c2cc3cc(NS(C)(=O)=O)ccc3[nH]2)CC1 [DELAVIRDINE]
2. O=c1[nH]c(=O)n([C@H]2C[C@H](O)[C@@H](CO)O2)cc1/C=C/Br [BRIVUDINE]
3. O=C(Cc1cccs1)N[C@@H]1C(=O)N2C(C(=O)[O-])=C(C[n+]3ccccc3)CS[C@H]12 [CEPHALORIDINE]
4. N=C(N)NC(=O)c1nc(Cl)c(N)nc1N [AMILORIDE]
5. CC(=O)OCC(=O)[C@@]1(OC(C)=O)[C@@H](C)C[C@H]2[C@@H]3C[C@H](F)C4=CC(=O)C=C[C@]4(C)[C@@]3(F)[C@@H](O)C[C@@]21C [DIFLORASONE DIACETATE]
6. CCOC1O[C@H]([C@@H](COCc2ccccc2)OCc2ccccc2)[C@H](OCc2ccccc2)[C@H]1O (stereo not given in full) [TRIBENOSIDE]
7. CC(C)Cc1ccc(C(C)C(=O)OCc2ccccn2)cc1 (stereo not given) [IBUPROFEN PICONOL]

Ans.
> 30 µM
> 30 µM
> 30 µM
11.1 µM
> 30 µM
> 30 µM
> 30 µM

Return reported AC50 values for all items listed beneath this line.
1. COc1cc(C[C@@H]2NCCc3cc(O)c(O)cc32)cc(OC)c1OC [TRETOQUINOL]
2. COc1ccc(C(=O)c2ccccc2)c(O)c1 [OXYBENZONE]

Ans.
["7.31 µM", "> 30 µM"]

###

Can you tell me AC50 for the items I'm about to list?
assayed target: Beta-2 adrenergic receptor (Homo sapiens); also: assay procedure not described here
Sequence (P07550 whole entry): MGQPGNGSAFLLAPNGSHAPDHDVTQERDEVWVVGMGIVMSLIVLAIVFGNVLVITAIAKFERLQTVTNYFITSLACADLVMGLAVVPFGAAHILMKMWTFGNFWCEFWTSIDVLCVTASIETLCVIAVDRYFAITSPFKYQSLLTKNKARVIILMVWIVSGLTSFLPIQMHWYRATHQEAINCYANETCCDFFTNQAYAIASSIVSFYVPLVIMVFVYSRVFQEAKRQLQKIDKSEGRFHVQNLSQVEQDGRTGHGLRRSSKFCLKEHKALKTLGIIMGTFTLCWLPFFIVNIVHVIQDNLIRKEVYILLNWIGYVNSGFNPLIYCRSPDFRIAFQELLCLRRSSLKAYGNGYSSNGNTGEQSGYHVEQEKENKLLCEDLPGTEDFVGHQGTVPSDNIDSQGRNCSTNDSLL

I'm hoping you can list AC50 for every molecule here, please.
1. CCCO[C@H]1[C@@H]([C@@H](COCc2ccc(Cl)cc2)OCc2ccc(Cl)cc2)OC(OCC)[C@@H]1O (stereo partly drawn) [CLOBENOSIDE]
2. CCC(=O)[C@@]1(C)[C@H](C)C[C@H]2[C@@H]3CCC4=CC(=O)C=C[C@]4(C)[C@H]3[C@@H](O)C[C@@]21C [RIMEXOLONE]
3. CCN(CCO)CCCC(C)Nc1ccnc2cc(Cl)ccc12 (stereo not drawn) [HYDROXYCHLOROQUINE]
4. COc1ccc(C(Cl)=C(c2ccc(OC)cc2)c2ccc(OC)cc2)cc1
5. O=C(O[C@H]1C[N+]2(CCCOc3ccccc3)CCC1CC2)C(O)(c1cccs1)c1cccs1 [ACLIDINIUM BROMIDE]
6. CCN(CC)Cc1nccn1-c1ccc([N+](=O)[O-])cc1C(=O)c1ccccc1Cl
7. OCC(O)COc1ccc(Cl)cc1 (stereo not drawn)
8. Nc1nc(Cl)nc2c1ncn2[C@@H]1O[C@H](CO)[C@@H](O)[C@@H]1F

Ans.
["> 30 µM", "> 10 µM", "> 10 µM", "> 10 µM", "> 10 µM", "> 30 µM", "> 10 µM", "> 30 µM"]

###

These compounds were tested on UniProt:Q9Y5N1; AC50 is the recorded read-out.
Sequence (Q9Y5N1 whole entry): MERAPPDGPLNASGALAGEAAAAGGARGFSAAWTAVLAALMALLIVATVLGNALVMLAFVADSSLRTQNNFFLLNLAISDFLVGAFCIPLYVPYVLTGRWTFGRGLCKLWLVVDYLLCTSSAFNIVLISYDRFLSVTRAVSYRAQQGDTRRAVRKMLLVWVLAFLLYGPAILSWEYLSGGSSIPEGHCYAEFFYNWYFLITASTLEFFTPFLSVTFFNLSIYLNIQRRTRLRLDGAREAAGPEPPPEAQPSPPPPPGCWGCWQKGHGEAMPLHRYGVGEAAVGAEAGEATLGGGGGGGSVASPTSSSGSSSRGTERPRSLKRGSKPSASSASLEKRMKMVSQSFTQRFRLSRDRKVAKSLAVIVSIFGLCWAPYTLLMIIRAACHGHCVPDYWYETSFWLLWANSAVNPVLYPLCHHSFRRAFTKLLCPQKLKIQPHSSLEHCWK

Solved entries:
INSERT INTO results (compound, assay_metric, recorded_measurement) VALUES
  ('CC(C)Cc1ccc(C(C)C(=O)OCc2ccccn2)cc1 (centres undefined)', 'AC50', '> 30 µM'),
  ('Cc1ccc2c([nH]c(=O)c3c(=O)cc(C(=O)OCCC(C)C)oc32)c1C', 'AC50', '> 30 µM'),
  ('COCC(=O)O[C@]1(CCN(C)CCCc2nc3ccccc3[nH]2)CCc2cc(F)ccc2[C@@H]1C(C)C', 'AC50', '> 30 µM');

Below are 6 compounds. Give each one its AC50.
1. CN1CCN(C(c2ccccc2)c2ccc(Cl)cc2)CC1 (centres undefined)
2. CC1(C)CCC(C)(C)c2cc(NC(=O)c3ccc(C(=O)O)cc3)ccc21
3. CC1=C(/C=C/C(C)=C\C=C\C(C)=C\C(=O)O)C(C)(C)CCC1
4. CC(C)(C)NCC(O)COc1ccccc1C#N (centres undefined)
5. CCOc1ccc(Cc2nccc3cc(OCC)c(OCC)cc23)cc1OCC
6. N=C(N)NC(=O)c1nc(Cl)c(N)nc1N [AMILORIDE]

Ans.
15.8 µM
> 30 µM
> 30 µM
> 30 µM
> 30 µM
> 30 µM
